testedSystem: kappa opioid receptor (Mus musculus, UniProt P33534)
Construct: from tissue; host or cells: mouse vas deferens (male Swiss Albino mice)
Sequence (P33534 whole entry): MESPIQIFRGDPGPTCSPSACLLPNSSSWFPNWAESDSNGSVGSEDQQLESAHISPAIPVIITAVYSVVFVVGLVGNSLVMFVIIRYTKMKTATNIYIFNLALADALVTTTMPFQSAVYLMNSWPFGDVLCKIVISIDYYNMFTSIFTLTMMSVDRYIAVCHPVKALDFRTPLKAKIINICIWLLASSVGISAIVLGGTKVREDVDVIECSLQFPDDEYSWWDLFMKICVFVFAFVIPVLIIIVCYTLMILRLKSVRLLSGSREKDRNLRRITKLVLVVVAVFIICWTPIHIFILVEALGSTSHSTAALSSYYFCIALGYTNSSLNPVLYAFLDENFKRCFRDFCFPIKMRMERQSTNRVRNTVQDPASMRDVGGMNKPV
testMethodNotes: Ex-vivo KOR agonistic activity, electrically stimulated mouse vas deferens (MVD) model
pIC50: −log10 of the molar value.
# label = Yes if pIC50 >= 7 else No

Please review the entries below; each comes with its answer.
COCC(=O)Nc1ccc(OCC(=O)N(C)[C@H](CN2CC[C@H](O)C2)c2ccccc2)c2cccnc12 [Compound 35] : Yes
CN(C(=O)COc1cccc2ncccc12)[C@H](CN1CC[C@H](O)C1)c1cccc(NS(C)(=O)=O)c1 [Compound 46] : Yes
CN(C(=O)COc1ccc([N+](=O)[O-])c2cccnc12)[C@H](CN1CC[C@H](O)C1)c1ccccc1 [Compound 7] : Yes
CN(C(=O)COc1ccc(NS(C)(=O)=O)c2ncccc12)[C@H](CN1CC[C@H](O)C1)c1cccc(NS(C)(=O)=O)c1 [Compound 44] : Yes

Prompt line: Could you verify whether the entry CN(C(=O)COc1ccc(NCCO)c2ncccc12)[C@H](CN1CC[C@H](O)C1)c1ccccc1 [Compound 41] shows pIC50 of no less than 7?
Response line: No
